Each recorded value in this set is attributed to paper PMC10757017.

Lab note: pKi readings collected with α-glucosidase (Saccharomyces cerevisiae, UniProt P53341) for the following compounds.
Sequence (P53341 whole entry): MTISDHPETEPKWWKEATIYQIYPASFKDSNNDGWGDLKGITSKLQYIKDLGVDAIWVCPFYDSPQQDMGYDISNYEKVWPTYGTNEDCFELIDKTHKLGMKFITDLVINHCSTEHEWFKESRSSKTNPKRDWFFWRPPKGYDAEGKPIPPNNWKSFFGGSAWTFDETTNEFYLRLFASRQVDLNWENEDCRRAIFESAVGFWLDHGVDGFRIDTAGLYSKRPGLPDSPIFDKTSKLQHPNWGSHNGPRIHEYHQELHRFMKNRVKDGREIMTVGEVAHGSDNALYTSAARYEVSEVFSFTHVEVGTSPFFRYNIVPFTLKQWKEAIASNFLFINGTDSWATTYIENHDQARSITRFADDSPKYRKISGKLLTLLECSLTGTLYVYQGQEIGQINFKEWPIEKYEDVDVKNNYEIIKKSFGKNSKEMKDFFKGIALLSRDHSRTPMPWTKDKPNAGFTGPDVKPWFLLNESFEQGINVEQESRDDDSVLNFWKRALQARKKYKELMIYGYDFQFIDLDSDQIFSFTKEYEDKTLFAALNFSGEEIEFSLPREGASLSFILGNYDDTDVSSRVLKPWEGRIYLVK
pKi: −log10 of the molar value.

>  <Chem smiles>
CN(C)c1ccc(C(=NN=Cc2cc([N+](=O)[O-])ccc2O)c2ccc(N(C)C)cc2)cc1

>  <Target entity>
α-glucosidase (Saccharomyces cerevisiae, UniProt P53341)

>  <pKi>
5.55

$$$$
>  <Chem smiles>
COc1cccc(C=NN=C(c2ccc(N(C)C)cc2)c2ccc(N(C)C)cc2)c1O

>  <Target entity>
α-glucosidase (Saccharomyces cerevisiae, UniProt P53341)

>  <pKi>
5.44

$$$$

* * *

# Target entity: α-glucosidase (Saccharomyces cerevisiae, UniProt P53341)
Flag rule - IC50 less than 300 nM flags Y; the remaining entries get N.

>  <Chem smiles>
CN(C)c1ccc(C(=NN=Cc2cccc(O)c2O)c2ccc(N(C)C)cc2)cc1

>  <Target entity>
α-glucosidase (Saccharomyces cerevisiae, UniProt P53341)

>  <Category label>
N

$$$$
>  <Chem smiles>
CN(C)c1ccc(C(=NN=Cc2cc([N+](=O)[O-])ccc2O)c2ccc(N(C)C)cc2)cc1

>  <Target entity>
α-glucosidase (Saccharomyces cerevisiae, UniProt P53341)

>  <Category label>
Y

$$$$
>  <Chem smiles>
CN(C)c1ccc(C(=NN=Cc2ccc(O)c(O)c2)c2ccc(N(C)C)cc2)cc1

>  <Target entity>
α-glucosidase (Saccharomyces cerevisiae, UniProt P53341)

>  <Category label>
N

$$$$
>  <Chem smiles>
CN(C)c1ccc(C(=NN=Cc2cccc(C=O)c2)c2ccc(N(C)C)cc2)cc1

>  <Target entity>
α-glucosidase (Saccharomyces cerevisiae, UniProt P53341)

>  <Category label>
N

$$$$
>  <Chem smiles>
CN(C)c1ccc(C(=NN=Cc2ccc(O)cc2O)c2ccc(N(C)C)cc2)cc1

>  <Target entity>
α-glucosidase (Saccharomyces cerevisiae, UniProt P53341)

>  <Category label>
N

$$$$
>  <Chem smiles>
COc1cccc(C=NN=C(c2ccc(N(C)C)cc2)c2ccc(N(C)C)cc2)c1O

>  <Target entity>
α-glucosidase (Saccharomyces cerevisiae, UniProt P53341)

>  <Category label>
Y

$$$$
>  <Chem smiles>
CN(C)c1ccc(C(=NN=Cc2ccc(O)cc2)c2ccc(N(C)C)cc2)cc1

>  <Target entity>
α-glucosidase (Saccharomyces cerevisiae, UniProt P53341)

>  <Category label>
N

$$$$
